Target: ACE extracted from rabbit lungs (Oryctolagus cuniculus)
Sequence (P12822 34-1310): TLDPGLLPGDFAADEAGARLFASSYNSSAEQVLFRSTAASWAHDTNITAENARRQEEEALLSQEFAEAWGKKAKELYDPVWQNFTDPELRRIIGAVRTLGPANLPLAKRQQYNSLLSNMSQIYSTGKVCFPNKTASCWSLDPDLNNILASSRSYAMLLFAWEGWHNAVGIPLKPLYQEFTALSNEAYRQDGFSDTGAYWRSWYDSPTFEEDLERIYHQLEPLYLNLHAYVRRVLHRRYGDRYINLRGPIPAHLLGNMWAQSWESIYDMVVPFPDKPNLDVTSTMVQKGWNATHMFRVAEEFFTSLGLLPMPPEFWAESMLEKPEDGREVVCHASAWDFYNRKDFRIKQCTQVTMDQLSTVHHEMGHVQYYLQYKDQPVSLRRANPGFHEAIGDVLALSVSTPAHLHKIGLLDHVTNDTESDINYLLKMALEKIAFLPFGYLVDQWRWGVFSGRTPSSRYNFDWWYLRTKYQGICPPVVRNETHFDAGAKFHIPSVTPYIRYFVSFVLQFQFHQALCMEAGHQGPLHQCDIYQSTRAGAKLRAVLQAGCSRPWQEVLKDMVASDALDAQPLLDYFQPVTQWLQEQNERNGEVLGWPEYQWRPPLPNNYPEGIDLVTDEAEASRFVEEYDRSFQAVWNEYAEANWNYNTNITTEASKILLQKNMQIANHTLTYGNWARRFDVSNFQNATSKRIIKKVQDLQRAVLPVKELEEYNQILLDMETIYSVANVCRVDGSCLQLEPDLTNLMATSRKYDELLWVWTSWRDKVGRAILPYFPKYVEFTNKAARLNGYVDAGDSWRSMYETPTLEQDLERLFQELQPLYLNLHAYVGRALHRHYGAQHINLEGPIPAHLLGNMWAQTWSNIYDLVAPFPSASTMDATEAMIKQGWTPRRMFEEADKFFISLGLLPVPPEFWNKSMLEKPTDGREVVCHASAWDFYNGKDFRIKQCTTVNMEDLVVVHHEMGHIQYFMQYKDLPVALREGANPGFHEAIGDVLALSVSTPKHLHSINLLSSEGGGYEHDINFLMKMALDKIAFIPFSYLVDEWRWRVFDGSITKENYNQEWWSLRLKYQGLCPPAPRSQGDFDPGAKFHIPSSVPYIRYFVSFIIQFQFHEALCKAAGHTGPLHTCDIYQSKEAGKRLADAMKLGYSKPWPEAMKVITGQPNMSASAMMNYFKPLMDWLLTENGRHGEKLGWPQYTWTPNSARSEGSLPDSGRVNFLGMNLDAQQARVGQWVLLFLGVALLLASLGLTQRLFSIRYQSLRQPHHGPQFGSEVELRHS
pIC50: −log10 of the molar value.
readout.kind: pIC50

- molecule: "C[C@@H]1CSC[C@H](N[C@@H](CCc2ccccc2)C(=O)O)C(=O)N1CC(=O)O"
  target.desc: "ACE extracted from rabbit lungs (Oryctolagus cuniculus)"
  pIC50: 8.52
- molecule: "O=C(O)CN1C(=O)[C@@H](N[C@@H](CCc2ccccc2)C(=O)O)CSC[C@H]1c1cccs1"
  target.desc: "ACE extracted from rabbit lungs (Oryctolagus cuniculus)"
  pIC50: 8.85
- molecule: "O=C(O)CN1CC(c2cccs2)SCC(NC(CCc2ccccc2)C(=O)O)C1=O (single isomer, unassigned)"
  target.desc: "ACE extracted from rabbit lungs (Oryctolagus cuniculus)"
  pIC50: 8.62
- molecule: "O=C(O)CN1CC(c2ccsc2)SCC(NC(CCc2ccccc2)C(=O)O)C1=O (single isomer, unassigned)"
  target.desc: "ACE extracted from rabbit lungs (Oryctolagus cuniculus)"
  pIC50: 8.60
- molecule: "O=C(O)CN1C(=O)[C@@H](N[C@@H](CCc2ccccc2)C(=O)O)CSC[C@@H]1Cc1ccccc1"
  target.desc: "ACE extracted from rabbit lungs (Oryctolagus cuniculus)"
  pIC50: 8.89
- molecule: "O=C(O)CN1CC(c2ccc3ccccc3c2)SCC(NC(CCc2ccccc2)C(=O)O)C1=O (single isomer, unassigned)"
  target.desc: "ACE extracted from rabbit lungs (Oryctolagus cuniculus)"
  pIC50: 8.70
